# Tested on: NCI-H322M lung
# TEST: NCI-60 one-dose screen, 48 h
# EXPERIMENTAL PARAMETERS: 10 µM unless noted
# Description: Growth inhibition of the NCI-H322M human Non-Small Cell Lung tumor cell line is measured as a screen for anti-cancer activity. Cells are grown in 96 well plates and exposed to the test compound for 48 hours. Compounds are tested at a single concentration, which is 10^-5 M for most compounds. The reported endpoint is percent growth (GI% or GIPRCNT), where numbers from 0 - 100% represent growth inhibition, and numbers from -100% - 0 represent cell death. […]
The panel holds about 83,000 compounds, 20% with a hit somewhere; the sample as a whole holds those more often. Calls of active or inactive are those of the source. Rule for the calls: active = growth percent below 10; inactive = the rest.
The categories you may choose from are 1 for active, -1 for inactive

Field: example entries. Status: answers known.
COMPOUND | LABEL
Cc1cccc2nc3ccccc3c(Nc3ccc(NS(C)(=O)=O)cc3)c12 | -1
CC1=CC(=O)OC1C/C=C(\C)CCC1[C@@]2(C)CCC[C@@](C)(C(=O)O)C2CC[C@@]1(C)O (stereo partly specified) | -1
COc1cc(C2CC(c3ccccc3)=NN2C=O)ccc1Oc1ccnc2cc(Cl)ccc12 (stereo unspecified) | -1
COc1cc(C2CC(c3ccc(Cl)cc3)=NN2C=O)ccc1Oc1ccnc2cc(Cl)ccc12 (stereo unspecified) | -1

--- query ---
Tell me the recorded outcome of this test for `O=C(Nc1ccc(Br)cc1)c1ccc(Cl)c(Cl)c1` .
-1
